This listing pairs binders with measured Kd.
Target: T1, rat VEGF164 (rat, UniProt P16612)
T1 chain: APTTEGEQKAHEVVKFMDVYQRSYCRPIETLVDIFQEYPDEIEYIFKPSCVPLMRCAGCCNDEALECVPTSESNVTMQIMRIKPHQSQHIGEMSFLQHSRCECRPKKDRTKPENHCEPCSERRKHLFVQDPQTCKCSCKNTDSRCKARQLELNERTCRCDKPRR
Assay: SPR, pH 5
Entry rule: numbers only, all in nM.

Example entries begin here.
578-min (antibody, V domains shown) VH: EVQLVESGGGLVQPGGSLRLSCAASGFSLTDYYYMTWVRQAPGKGLEWVSFIDPDDDPYYATWAKGRFTISRDNSKNTLYLQMNSLRAEDTAVYYCAKGDHNSGWGLDIWGQGTLVTVSS VL: EIVMTQSPSTLSASVGDRVIITCQASEIIHSWLAWYQQKPGKAPKLLIYLASTLASGVPSRFSGSGSGAEFTLTISSLQPDDFATYYCQNVYLASTNGANFGQGTKLTVLG: 10.7
509-maxII (antibody, V domains shown) VH: EVQLVESGGGLVQPGGSLRLSCTASGFSLSSYYMSWVRQAPGKGLEWVGILDYVGDTDYASWAKGRFTISKDASKNTVYLQMNSLRAEDTAVYYCARTDDSRGWGLNIWGQGTLVTVSS VL: EIVMTQSPSTLSASVGDRVIITCQASQNIRIWLSWYQQKPGKAPKLLIYKASTLESGVPSRFSGSGSGTEFTLTISSLQPDDFATYYCQNNAHYSTNGGTFGQGTKLTVLG: 1.81

Would you mind telling me what Kd value was observed for 509-max (antibody, V domains shown) VH: EVQLVESGGGLVQPGGSLRLSCTASGFSLSSYYMCWVRQAPGKGLEWVGCLDYVGDTDYASWAKGRFTISKDASKNTVYLQMNSLRAEDTAVYYCARTDDSRGWGLNIWGQGTLVTVSS VL: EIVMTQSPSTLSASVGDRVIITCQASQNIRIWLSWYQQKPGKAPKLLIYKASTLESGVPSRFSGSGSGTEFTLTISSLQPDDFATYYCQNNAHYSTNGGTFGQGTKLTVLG ?
1.65
